Tested on: BXPC-3
assayInfo: Cytotoxicity against human BXPC-3 cells assessed as reduction in cell viability incubated for 48 hrs by MTT assay
Assay type: functional, cell-based
conditionSet: BXPC-3, 48 h
assayReadout: pIC50
Remember the convention: pIC50 equals -log10 of concentration in molar.

Q. // pIC50 lookup, key: CC(=O)Oc1ccccc1C(=O)/N=C1\[Se]CCN1C(=O)c1ccccc1OC(C)=O
A. 5.68

====

System: Human alphaherpesvirus 2
assayInfo: Antiviral activity against HSV-2 infected in African green monkey Vero cells assessed as reduction in virus-induced cytopathic effect incubated for 3 days by MTT assay
Type: functional, organism-based
conditionSet: Human alphaherpesvirus 2, Vero, 72 h
We begin with a simple list: items and their reported EC50.
# value in µM; strip the unit string

NC1=Nc2c(ncn2C[Se]CCO)C(N)N1 (stereo not given) ... 32.2

Read the next record carefully.
Q. Endpoint output: EC50 of CNC1NC(N)=Nc2c1ncn2C[Se]CCO (stereo not given) . Value?
A. 17.6

====

system: Lactoperoxidase (Homo sapiens, UniProt P22079)
Sequence (P22079 whole entry): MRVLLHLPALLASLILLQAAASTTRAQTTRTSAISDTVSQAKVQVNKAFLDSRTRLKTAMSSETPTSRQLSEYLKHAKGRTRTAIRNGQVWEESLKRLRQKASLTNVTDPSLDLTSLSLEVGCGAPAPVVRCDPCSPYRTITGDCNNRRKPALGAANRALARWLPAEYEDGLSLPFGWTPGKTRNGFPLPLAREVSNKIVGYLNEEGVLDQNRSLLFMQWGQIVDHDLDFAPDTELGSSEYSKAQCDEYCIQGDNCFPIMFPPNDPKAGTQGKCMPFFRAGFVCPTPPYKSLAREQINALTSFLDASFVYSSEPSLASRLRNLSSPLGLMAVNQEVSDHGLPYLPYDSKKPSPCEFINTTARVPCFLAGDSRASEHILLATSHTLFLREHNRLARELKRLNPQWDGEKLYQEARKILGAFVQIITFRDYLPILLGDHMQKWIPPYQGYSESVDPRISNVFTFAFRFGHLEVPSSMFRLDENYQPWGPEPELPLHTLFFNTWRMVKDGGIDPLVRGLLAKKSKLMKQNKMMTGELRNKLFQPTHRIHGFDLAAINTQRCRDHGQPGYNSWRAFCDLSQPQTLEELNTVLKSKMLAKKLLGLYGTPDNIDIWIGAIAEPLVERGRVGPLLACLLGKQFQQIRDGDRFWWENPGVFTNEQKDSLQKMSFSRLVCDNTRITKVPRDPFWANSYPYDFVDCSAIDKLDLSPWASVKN
assayInfo: Inhibition of LPO (unknown origin)-mediated L-tyrosine nitration incubated for 20 mins in presence of H2O2 and sodium nitrite by RP-HPLC analysis
assayReadout: pIC50
The quantity pIC50 is defined as the negative base-10 logarithm of the molar concentration.

COc1cccc(Cn2ccn(Cc3cccc(OC)c3)c2=S)c1 ... 3.86

Kindly review the next molecule as well.
Q. GET /values?readout=pIC50&item= Cn1cc[nH]c1=S
A. 6.29

====

assayInfo: Antioxidant activity assessed as reduction in peroxynitrite mediated L-tyrosine nitration by measuring remaining activity relative to control
Type: functional
Design: concentration or dose not given beside the values
Label met for high-side Activity (at or above 60%) and not met for low-side Activity (below it).

Please review the entries below; each comes with its answer.
C=C1N(C)C=CN1CCCn1ccn(C)c1=[Se] ... not met
C=C1N(C)C=CN1CCCCCn1ccn(C)c1=[Se] ... not met
Cn1cc[nH]c1=[Se] ... met
CN1C=CN(CCn2ccn(C)c2=[Se])C1 ... met
C=Cn1ccn(C)c1=[Se] ... met
C=C1N(C)C=CN1CCCCn1ccn(C)c1=[Se] ... not met

Q. In plain terms: is recorded Activity at least 60% for Cn1ccnc1S [METHIMAZOLE] ?
A. not met

Q. Check if Activity >= 60% (inclusive). Item: Cn1ccn(C)c1=[Se]
A. met

Q. Is Activity at least 60%? Consider COc1cccc(Cn2ccn(Cc3cccc(OC)c3)c2=[Se])c1
A. met

====

Tested on: Aspergillus fumigatus
assayInfo: Antifungal activity against Aspergillus fumigatus CGMCC 3.7795
Format: functional
assayReadout: MIC (µg/mL)
Answer format: numeric, µg/mL implied, no suffix.

Below are worked cases with known answers.
Cc1cccc(C)c1[Se]C(Cn1ccnc1)c1ccc(Cl)cc1 (centres undefined) ... 1
Cc1ccccc1[Se]C(Cn1ccnc1)c1ccc(Cl)cc1 (centres undefined) ... 4
Cc1cccc(C)c1[Se]C(Cn1ccnc1)c1ccc(F)cc1 (centres undefined) ... 2

Let's switch to this compound now.
Q. # lookup: MIC of CCC(C)n1ncn(-c2ccc(N3CCN(c4ccc(OCC5COC(Cn6cncn6)(c6ccc(Cl)cc6Cl)O5)cc4)CC3)cc2)c1=O (centres undefined) [ITRACONAZOLE]
A. 2

====

Test system: Human alphaherpesvirus 1
assayInfo: Antiviral activity against HSV-1 infected in African green monkey Vero cells assessed as reduction in virus-induced cytopathic effect incubated for 3 days by MTT assay
Type: functional, organism-based
conditionSet: Human alphaherpesvirus 1, Vero, 72 h
assayReadout: EC50 (µM)
Give the quantity in µM, number only.

CNC1NC(N)=Nc2c1ncn2C[Se]CCO (stereo not given) ... 14.3

# next compound below
Q. Any idea what EC50 was measured for NC1=Nc2c(ncn2C[Se]CCO)C(N)N1 (stereo not given) ?
A. 15.4
